Biological target: F508delCFTR (Homo sapiens, UniProt P13569, DEL508-508)
Construct: expressed in transfected cells; host or cells: CFBE41o- human lung-derived epithelial cells (CFBE4lo-F508delCFTR-HRP), doxycycline-inducible
Sequence (P13569 with tags, fused parts or gaps DEL508-508): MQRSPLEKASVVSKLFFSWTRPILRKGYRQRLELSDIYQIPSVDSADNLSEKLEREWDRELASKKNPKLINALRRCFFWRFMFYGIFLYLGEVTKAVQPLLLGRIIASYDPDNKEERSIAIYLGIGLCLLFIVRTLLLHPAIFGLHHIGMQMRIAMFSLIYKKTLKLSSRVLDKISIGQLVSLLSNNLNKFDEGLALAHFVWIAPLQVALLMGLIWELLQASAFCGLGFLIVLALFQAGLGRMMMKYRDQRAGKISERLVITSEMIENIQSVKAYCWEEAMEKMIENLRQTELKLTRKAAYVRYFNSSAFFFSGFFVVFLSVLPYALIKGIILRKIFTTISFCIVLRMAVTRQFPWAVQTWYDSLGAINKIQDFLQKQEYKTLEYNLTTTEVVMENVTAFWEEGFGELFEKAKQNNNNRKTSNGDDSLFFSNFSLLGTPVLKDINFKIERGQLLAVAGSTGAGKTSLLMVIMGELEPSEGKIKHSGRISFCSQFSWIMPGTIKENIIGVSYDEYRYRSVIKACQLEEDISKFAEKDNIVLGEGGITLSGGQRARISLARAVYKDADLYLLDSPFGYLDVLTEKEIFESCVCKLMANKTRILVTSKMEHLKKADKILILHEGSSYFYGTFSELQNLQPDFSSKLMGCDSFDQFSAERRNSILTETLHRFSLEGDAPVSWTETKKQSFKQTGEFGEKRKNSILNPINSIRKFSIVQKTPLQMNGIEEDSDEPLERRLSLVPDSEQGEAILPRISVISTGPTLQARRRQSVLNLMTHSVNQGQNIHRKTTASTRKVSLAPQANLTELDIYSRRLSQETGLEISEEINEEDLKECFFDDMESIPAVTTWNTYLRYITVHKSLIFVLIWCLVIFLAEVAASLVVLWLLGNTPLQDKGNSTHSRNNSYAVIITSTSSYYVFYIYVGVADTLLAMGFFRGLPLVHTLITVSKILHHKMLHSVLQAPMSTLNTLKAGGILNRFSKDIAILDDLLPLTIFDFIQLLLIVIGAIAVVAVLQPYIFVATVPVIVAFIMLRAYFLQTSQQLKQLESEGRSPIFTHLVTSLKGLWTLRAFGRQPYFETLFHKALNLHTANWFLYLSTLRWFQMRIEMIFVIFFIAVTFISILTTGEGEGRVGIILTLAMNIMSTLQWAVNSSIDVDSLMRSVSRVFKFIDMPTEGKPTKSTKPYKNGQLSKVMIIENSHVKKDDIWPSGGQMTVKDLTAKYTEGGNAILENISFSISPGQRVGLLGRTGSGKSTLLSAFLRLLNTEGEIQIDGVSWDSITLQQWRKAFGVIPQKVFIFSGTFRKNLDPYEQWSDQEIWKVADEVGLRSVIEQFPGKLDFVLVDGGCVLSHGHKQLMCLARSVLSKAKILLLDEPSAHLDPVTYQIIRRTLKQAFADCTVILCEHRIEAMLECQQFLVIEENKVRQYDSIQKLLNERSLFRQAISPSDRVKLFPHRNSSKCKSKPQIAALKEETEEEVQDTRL
Assay: Cell Surface Expression-Horse Radish Peroxidase (CSE-HRP) Assay;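 on Maximum % activity (without co-corrector): percent of the 2 µM on-plate positive control corrector response above DMSO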
Assay type: cell-based
Conditions: without co-corrector; maximum at any tested concentration, normalized to on-plate positive control; read-out: Maximum % activity (without co-corrector)
Measured Emax by item

Record COc1ccc(C(C)(C)C)cc1CN[C@H]1[C@H](C(C)(C)C)[C@@H](C(=O)O)N(C(=O)[C@H]2OCC[C@H]2c2ccccc2)[C@H]1c1ccccc1 (relative stereo) : what is its Emax with F508delCFTR (Homo sapiens, UniProt P13569, DEL508-508)?
100 to 200%

// same read-out, input: COc1ccc(C(C)(C)C)cc1CN[C@H]1[C@H](C(C)(C)C)[C@@H](C(=O)O)N(C(=O)C2CCCCO2)[C@H]1c1ccccc1C(C)C (relative stereo)
> 200%

// same read-out, input: COc1ccc(C(F)(F)F)cc1CN[C@@H]1[C@@H](C(C)(C)C)[C@H](C(=O)O)N(C(=O)C2CCCCC2)[C@@H]1c1ccccc1 (racemic)
> 200%

// same read-out, input: COc1ccc(C(C)(C)C)cc1CN[C@H]1[C@H](C(C)(C)C)[C@@H](C(=O)O)N(C(=O)OCc2ccccc2Cl)[C@H]1c1ccccc1
100 to 200%

// same read-out, input: COc1ncc(Cl)cc1CN[C@@H]1[C@@H](C(C)(C)C)[C@H](C(=O)O)N(C(=O)C2CCCCC2)[C@@H]1c1ccccc1 (racemic)
100 to 200%

// same read-out, input: COc1ccc(C(C)(C)C)cc1CN[C@H]1[C@H](C(C)(C)C)[C@@H](C(=O)O)N(C(=O)C2CCc3ccccc3O2)[C@H]1c1ccccc1 (single isomer, unassigned)
100 to 200%

// same read-out, input: COc1ccc(S(C)(=O)=O)cc1CN[C@@H]1[C@@H](C(C)(C)C)[C@H](C(=O)O)N(C(=O)C2CCCCC2)[C@@H]1c1ccccc1 (racemic)
< 100%

// same read-out, input: COc1nc(C(C)(C)C)ccc1CN[C@H]1[C@H](C(C)(C)C)[C@@H](C(=O)O)N(C(=O)[C@@H]2CCC[C@H](OC)C2)[C@H]1c1ccccc1 (relative stereo)
< 100%

====

Molecular target: F508delCFTR (Homo sapiens, UniProt P13569, DEL508-508)
Construct: expressed in transfected cells; host or cells: CFBE41o- human lung-derived epithelial cells (CFBE4lo-F508delCFTR-HRP), doxycycline-inducible
Test: Cell Surface Expression-Horse Radish Peroxidase (CSE-HRP) Assay
Assay type: cell-based
Conditions: CSE-HRP; with co-corrector (2 μM of 3-[(2R,4R)-4-({[1-(2,2-difluoro-1,3-benzodioxol-5-yl)cyclopropyl]carbonyl}amino)-7-methoxy-3,4-dihydro-2H-chromen-2-yl]benzoic acid); read-out: EC50 (with co-corrector)
Measured EC50 by item

Worked examples, 2 molecules total:
[
  {
    "Molecular String": "COc1ccc(C(F)(F)F)cc1CN[C@@H]1[C@@H](C(C)(C)C)[C@H](C(=O)O)N(C(=O)[C@@H](OC)c2ccccc2)[C@@H]1c1ccccc1",
    "Measurement Label": "EC50",
    "Experimental Result": "1000 to 10000 nM"
  },
  {
    "Molecular String": "COc1cc(C(F)(F)F)ccc1CN[C@H]1[C@H](C(C)(C)C)[C@@H](C(=O)O)N(C(=O)OC(C)C)[C@H]1c1ccccc1OC",
    "Measurement Label": "EC50",
    "Experimental Result": "1000 to 10000 nM"
  }
]

Please look up its EC50: COc1ccc(Cl)c2c1CN([C@H]1[C@H](C(C)(C)C)[C@@H](C(=O)O)N(C(=O)[C@@H]3CCCCO3)[C@H]1c1ccccc1C(C)C)C2
< 1000 nM

// same read-out, input: COc1cccc(S(=O)(=O)N2[C@H](C(=O)O)[C@@H](C(C)(C)C)[C@H](NCc3cc(C4CCC4)cnc3OC)[C@@H]2c2ccccc2C(C)C)n1
1000 to 10000 nM

// same read-out, input: COc1cc(Cl)ccc1CN[C@H]1[C@H](C(C)(C)C)[C@@H](C(=O)O)N(C(=O)C2CCCCC2)[C@H]1c1cccnc1OC
1000 to 10000 nM

// same read-out, input: COc1ccc(C(C)(C)C)cc1CN[C@H]1[C@H](C(C)(C)C)[C@@H](C(=O)O)N(C(=O)Cc2ccc(C)cc2)[C@H]1c1ccccc1
< 1000 nM

====

Target: F508delCFTR (Homo sapiens, UniProt P13569, DEL508-508)
Construct: expressed in transfected cells; host or cells: CFBE41o- human lung-derived epithelial cells (CFBE4lo-F508delCFTR-HRP), doxycycline-inducible
Assay: Cell Surface Expression-Horse Radish Peroxidase (CSE-HRP) Assay
Assay type: cell-based
Conditions: with co-corrector (2 μM of 3-[(2R,4R)-4-({[1-(2,2-difluoro-1,3-benzodioxol-5-yl)cyclopropyl]carbonyl}amino)-7-methoxy-3,4-dihydro-2H-chromen-2-yl]benzoic acid); read-out: EC50 (with co-corrector)
pEC50: −log10 of the molar value.
Measurement Label: pEC50

[
  {
    "Compound": "COc1nc(C(C)(C)C)ccc1CN[C@H]1[C@H](C(C)(C)C)[C@@H](C(=O)O)N(C(=O)[C@@H]2OC[C@@H]3CCC[C@@H]32)[C@H]1c1ccccc1 (relative stereo) [II-431]",
    "System": "F508delCFTR (Homo sapiens, UniProt P13569, DEL508-508)",
    "pEC50": "> 6.00"
  }
]

Please look up its pEC50: COc1cc2c(cc1CN[C@H]1[C@H](C(C)(C)C)[C@@H](C(=O)O)N(C(=O)OC(C)C)[C@H]1c1cccnc1N(C)C)CCCC2 [II-565]
5.00 to 6.00

// same read-out, input: COc1ccc(C(C)(C)C)cc1CN[C@H]1[C@H](C(C)(C)C)[C@@H](C(=O)O)N(C(=O)[C@H]2CCCCO2)[C@H]1c1ccccc1F [Example 50]
5.00 to 6.00

// same read-out, input: COc1ncc(C2CCC2)cc1CN[C@H]1[C@H](C(C)(C)C)[C@@H](C(=O)O)N(C(=O)C2CCCCC2)[C@H]1c1cccnc1N(C)C [Example I-131]
5.00 to 6.00

// same read-out, input: COc1ncc(C2CC2)cc1CN[C@H]1[C@H](C(C)(C)C)[C@@H](C(=O)O)N(C(=O)[C@@H]2CCCCO2)[C@H]1c1ccccc1C(C)C [Example 115]
> 6.00

// same read-out, input: COc1cccc([C@@H]2[C@H](NCc3ccccc3OC(F)F)[C@@H](C(C)(C)C)[C@H](C(=O)O)N2C(=O)C2CCCCC2)n1 (racemic) [Example I-16]
5.00 to 6.00

// same read-out, input: COc1ccc(CN[C@H]2[C@H](C(C)(C)C)[C@@H](C(=O)O)N(C(=O)C3CCCCC3)[C@H]2c2ccccc2)cc1Cl [III-126]
5.00 to 6.00

// same read-out, input: COc1ccc(C(C)(C)C)cc1CN[C@H]1[C@H](C23CC(C2)C3)[C@@H](C(=O)O)N(C(=O)OC(C)C)[C@H]1c1ccccc1F [III-222]
5.00 to 6.00

// same read-out, input: COc1ccc(C(C)(C)C)cc1CN[C@H]1[C@H](C(C)(C)C)[C@@H](C(=O)O)N(C(=O)C2CCc3cc(F)ccc3O2)[C@H]1c1ccccc1 (some centres unmarked) [II-320]
> 6.00

// same read-out, input: COc1ncc(C(F)(F)F)cc1CN[C@H]1[C@H](C(C)(C)C)[C@@H](C(=O)O)N(C(=O)C2CCCCC2)[C@H]1c1ccccc1OC(F)F [Example 14]
5.00 to 6.00

// same read-out, input: COc1cc(C(F)(F)F)ccc1CN[C@H]1[C@H](C(C)(C)C)[C@@H](C(=O)O)N(C(=O)C2CCCCC2)[C@H]1c1ccccc1OC(F)F [Example I-43]
5.00 to 6.00

====

Molecular target: F508delCFTR (Homo sapiens, UniProt P13569, DEL508-508)
Construct: expressed in transfected cells; host or cells: CFBE41o- human lung-derived epithelial cells (CFBE4lo-F508delCFTR-HRP), doxycycline-inducible
Assay: Cell Surface Expression-Horse Radish Peroxidase (CSE-HRP) Assay
Type: cell-based
Settings: with co-corrector (2 μM of 3-[(2R,4R)-4-({[1-(2,2-difluoro-1,3-benzodioxol-5-yl)cyclopropyl]carbonyl}amino)-7-methoxy-3,4-dihydro-2H-chromen-2-yl]benzoic acid); read-out: EC50 (with co-corrector)
Measurement Label: EC50

Worked examples, 4 molecules total:
[
  {
    "Molecule": "COc1ccc(C(C)(C)C)cc1CN[C@H]1[C@H](C(C)(C)C)[C@@H](C(=O)O)N(C(=O)[C@@H]2C[C@H]2c2cccnc2)[C@H]1c1ccccc1 (relative stereo)",
    "EC50": "1 to 10 µM"
  },
  {
    "Molecule": "COc1ccc(C(C)(C)C)cc1CN[C@H]1[C@H](C(C)(C)C)[C@@H](C(=O)O)N(C(=O)C2Cc3ccccc3O2)[C@H]1c1cccnc1OC (single isomer, unassigned) [Example I-166]",
    "EC50": "< 1 µM"
  },
  {
    "Molecule": "COc1nc(C(C)(C)C)ccc1CN[C@H]1[C@H](C(C)(C)C)[C@@H](C(=O)O)N(C(=O)[C@H](OC)c2ccccc2)[C@H]1c1ccccc1",
    "EC50": "< 1 µM"
  },
  {
    "Molecule": "COc1nc(C(C)(C)C)ccc1CN[C@H]1[C@H](C(C)(C)C)[C@@H](C(=O)O)N(C(=O)C2CCCCC2)[C@H]1c1ccccc1C(C)C",
    "EC50": "< 1 µM"
  }
]

Please look up its EC50: COc1ccc(C(C)(C)C)cc1CN[C@H]1[C@H](C(C)(C)C)[C@@H](C(=O)O)N(C(=O)[C@@H]2CCC[C@](C)(O)C2)[C@H]1c1ccccc1
1 to 10 µM
